tested on: Panel NCI-60 (60 carcinoma cell lines); test: Antiproliferative activity against NCI60 cell line; format: functional, Homo sapiens
Output Y for pGI50 not less than 6; output N otherwise.

>>> label_value("COc1cc2c(c(OC)c1OC)-c1ccc(OC)c(=O)cc1[C@@H](NC(C)=O)CC2")
"N"
>>> label_value("O=C(OC12CC3CC(CC(C3)C1)C2)c1ccc(NCc2cc(O)ccc2O)cc1")
"N"
>>> label_value("COc1cccc2c1C(=O)c1c(O)c3c(c(O)c1C2=O)CC(O)(C(=O)CO)CC3OC1CC(N)C(O)C(C)O1 (stereo not drawn)")
"Y"
>>> label_value("CCCCCCC(O)C(O)CCC(O)C1CCC(CCCCC(O)CC2=CC(C)OC2=O)O1 (stereo not drawn)")
"N"
>>> label_value("CN(Cc1cnc2nc(N)nc(N)c2n1)c1ccc(C(=O)N[C@@H](CCC(=O)O)C(=O)O)cc1 [METHOTREXATE]")
"N"
>>> label_value("Nc1ccn([C@@H]2O[C@H](CO)[C@@H](O)[C@@H]2O)c(=O)n1")
"N"
